The measured values listed here are drawn from patent US7582678B2.

# Withdrawal latency (% of vehicle) values compiled below
# Tested on: Male CD-1 mice
# Experiment: Tail flick assay (radiated heat, acute pain) in mice;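 note: infrared heat aimed at the tail of restrained mice, time until tail flick recorded as mean of 2-3 readings, 4-8 animals per group, compared with vehicle-treated animals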
# Condition: I.P., 50 mg/kg, 15 min post-injection

Solved cases (3 shown):
Molecule	Assay System	Withdrawal latency (% of vehicle)
CCCCCCCCCCCCCCCCCC(=O)OC[C@H](COP(=O)([O-])OCC[N+](C)(C)C)OC(=O)C(CCC)CCCCCCCCCC (some centres unmarked)	Male CD-1 mice	123% of vehicle
CCCCCCCCCCCCCCCCCC(=O)OC[C@H](COP(=O)([O-])OCC[N+](C)(C)C)OC(=O)C(CCC)CCCCCCC (some centres unmarked)	Male CD-1 mice	132% of vehicle
CCCCCCCCCCCCCCCCCC(=O)OC[C@H](COP(=O)([O-])OCC[N+](C)(C)C)OC(=O)C(CCCCC)CCCCC	Male CD-1 mice	113% of vehicle

Let me check: `CCCCCC(CCCCC)C(=O)O` , system Male CD-1 mice, measured Withdrawal latency (% of vehicle) is 115% of vehicle

Let me check: CCCCCCCCCCC(CCC)C(=O)O (centres unmarked) , system Male CD-1 mice, measured Withdrawal latency (% of vehicle) is 151% of vehicle
